# studyTarget: human IDO1 (Homo sapiens, UniProt P14902)
# Sequence (P14902 whole entry): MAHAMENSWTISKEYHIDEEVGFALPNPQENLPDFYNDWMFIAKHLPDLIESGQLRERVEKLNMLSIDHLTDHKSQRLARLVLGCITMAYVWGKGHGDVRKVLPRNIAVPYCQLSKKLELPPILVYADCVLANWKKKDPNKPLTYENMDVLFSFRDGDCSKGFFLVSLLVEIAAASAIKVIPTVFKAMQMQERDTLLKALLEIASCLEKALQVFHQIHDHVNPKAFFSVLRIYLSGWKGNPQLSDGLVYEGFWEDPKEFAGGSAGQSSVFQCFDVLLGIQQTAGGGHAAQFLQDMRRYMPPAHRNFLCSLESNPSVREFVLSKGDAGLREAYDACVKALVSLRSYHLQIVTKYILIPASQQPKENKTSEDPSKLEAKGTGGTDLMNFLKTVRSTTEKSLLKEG
# assayText: IDO inhibition assay in human IDO1/HEK293 cells (IDO1 HEK Human)
# conditionParameters: HEK293 cells stably expressing human IDO1; 20 hours incubation; absorbance at 490 nm after Ehrlich reagent
Note that class boundaries on IC50 are zone 1 = under 10 nM, zone 2 = from 10 nM up to 90 nM, zone 3 = 90 nM and over

{"columns": ["compound", "categoryLabel"],
 "data": [
  ["Cc1ccc(NC(=O)Nc2cc(-c3ccccc3-c3noc(=O)[nH]3)cc3c2OCCCC3c2ccccc2)cc1 (single isomer, unassigned) [Example 67]", "zone 1"],
  ["Cc1ccc(NC(=O)Nc2cc(-c3ccccc3-c3nnn[nH]3)cc3c2OCC(O)C(O)C3c2ccccc2)cc1 (racemic) [9 (Rac.)]", "zone 3"],
  ["Cc1ccc(NC(=O)Nc2cc(-c3ccccc3-c3nnn[nH]3)cc3c2OCCCC3C(C)C)cc1 (racemic) [Example 24]", "zone 1"],
  ["COCC(CC(=O)O)c1cc(Nc2ccc(C#N)cc2)c2c(c1)C(C1CC1)CCCO2 (single isomer, unassigned) [131 (dia. 1)]", "zone 2"],
  ["Cc1ccc(NC(=O)Nc2cc(-c3ccccc3-c3nnn[nH]3)cc3c2OCCCC3C)cc1 (stereo not shown) [Example 31]", "zone 2"],
  ["CC1(C)Oc2c(NC(=O)Nc3ccccc3F)cc(-c3ccccc3C(=O)O)cc2C1c1ccccc1 (racemic) [Example 126]", "zone 3"],
  ["CCC1Oc2c(NC(=O)Nc3ccc(C)cc3)cc(-c3ccccc3-c3nnn[nH]3)cc2C1CCC(F)(F)F (racemic) [Example 102]", "zone 2"],
  ["Cc1ccc(CC(=O)Nc2cc(-c3ccccc3-c3nnn[nH]3)cc3c2OCCCC3C2CC2)cc1 (single isomer, unassigned) [37 (En. 1)]", "zone 3"],
  ["Cc1ccc(NC(=O)Nc2cc(C(C)CC(=O)O)cc3c2O[C@H](C2CC2)[C@H]3c2ccccc2)cc1 (mixture of isomers) [Example 111]", "zone 3"],
  ["Cc1ccc(NC(=O)Nc2cc(-c3ccccc3-c3nnn[nH]3)cc3c2OC(C)(C)C3c2ccccc2)cc1 (racemic) [Example 123]", "zone 1"],
  ["CCC(C)C1CCCOc2c(NC(=O)Cc3ccc(C)cc3)cc(-c3ccccc3-c3nnn[nH]3)cc21 (single isomer, unassigned) [30 (En. 1)]", "zone 1"]
]}

###

# studyTarget: human IDO1 (Homo sapiens, UniProt P14902)
# assayText: IDO inhibition assay in human IDO1/HEK293 cells (IDO1 HEK Human)
# conditionParameters: HEK293 cells stably expressing human IDO1; 20 hours incubation; absorbance at 490 nm after Ehrlich reagent
# Experimental: HEK293 cells were transfected with a pCDNA-based mammalian expression vector harboring human IDO1 cDNA (NM 002164.2) by electroporation. They were cultured in medium (DMEM with 10% FBS) containing 1 mg/ml G418 for two weeks. […] The compound treatments were stopped by adding trichloroacetic acid (Sigma-Aldrich) to a final concentration at 0.2%. […] The absorbance at 490 nm was measured on Envision plate reader. […]
pIC50: −log10 of the molar value.
# key: entry, value: pIC50
measureName: pIC50

{"columns": ["compound", "studyTarget", "measured"],
 "data": [
  ["c1ccc(C2CCCOc3c(Nc4nc5ccccc5s4)cc(-c4ccccc4-c4nnn[nH]4)cc32)cc1 (single isomer, unassigned) [64 (En. 1)]", "human IDO1 (Homo sapiens, UniProt P14902)", 6.38],
  ["O=C(Nc1ccccc1F)Nc1cc(-c2ccccc2-c2nnn[nH]2)cc2c1OCCCC2c1ccccc1 (single isomer, unassigned) [10 (En. 1)]", "human IDO1 (Homo sapiens, UniProt P14902)", 5.84],
  ["COC(=O)c1c(OC)cccc1-c1cc(NC(=O)Nc2ccc(C)cc2)c2c(c1)C(c1ccccc1)CCCO2 (stereo not drawn)", "human IDO1 (Homo sapiens, UniProt P14902)", 6.42],
  ["Cc1ccc(NC(=O)Nc2cc(-c3ccccc3C(N)=O)cc3c2OCCCC3c2ccccc2)cc1 (stereo not drawn)", "human IDO1 (Homo sapiens, UniProt P14902)", 7.39],
  ["Cc1ccc(CC(=O)Nc2cc(-c3ccccc3-c3nnn[nH]3)cc3c2OCCCC3C(C)C)cc1 (single isomer, unassigned) [25 (En. 2)]", "human IDO1 (Homo sapiens, UniProt P14902)", 7.15],
  ["c1ccc(C2CCCOc3c(Nc4ccn5nccc5n4)cc(-c4ccccc4-c4nnn[nH]4)cc32)cc1 (single isomer, unassigned) [84 (En. 2)]", "human IDO1 (Homo sapiens, UniProt P14902)", 7.59]
]}
